Data provenance is patent US8435978B2.

inhibition at 10 µM values for the molecules below.
test_system: B1R receptor of the rat (Rattus norvegicus)
Construct: host or cells: CHO K1 cells (Chinese hamster ovary), stably transfected
assay_protocol: Functional study on the bradykinin receptor 1 (B1R), FLIPR Ca2+ assay, rB1R cells
Format: cell-based
experimental_parameters: CHO-K1, test substance 10 μM, agonist Des-Arg9-bradykinin 100 nM, % inhibition compared with the maximum achievable inhibition, read-out: B1R Antagonism, rat [10 μM] % Inhibition
Counter-ions that a name gives are not always drawn.

{"columns": ["molecule", "test_system", "units_label", "inhibition at 10 µM"],
 "data": [
  ["CN1CCC(N2CCN(C(=O)COCC3CCCCN3S(=O)(=O)c3cc4ccccc4s3)CC2)CC1 (stereo not drawn)", "B1R receptor of the rat (Rattus norvegicus)", "%", 82.8],
  ["Cc1cc(C)c(S(=O)(=O)N2CCCCC2COCC(=O)Nc2cccc(CN3CCCCC3)c2)c(C)c1 (stereo not drawn)", "B1R receptor of the rat (Rattus norvegicus)", "%", 40.3],
  ["CCN1CCN(CCCNC(=O)COCC2CCCCN2S(=O)(=O)c2c(C)cc(OC)cc2C)CC1 (stereo not drawn)", "B1R receptor of the rat (Rattus norvegicus)", "%", 103],
  ["CN(C)CCCN1CCN(C(=O)COCC2CCCN2S(=O)(=O)c2ccc(Cl)c(Cl)c2)CC1 (stereo not drawn)", "B1R receptor of the rat (Rattus norvegicus)", "%", 7.33],
  ["Cc1cccc(Cl)c1S(=O)(=O)N1CCC[C@@H]1COCC(=O)N1CCN(C2CCN(C)CC2)CC1 [Example 152, dihydrochloride]", "B1R receptor of the rat (Rattus norvegicus)", "%", 90.8],
  ["COc1cc(C)c(S(=O)(=O)N2CCCCC2COCC(=O)Nc2cccc(N3CCOCC3)c2)c(C)c1 (stereo not drawn)", "B1R receptor of the rat (Rattus norvegicus)", "%", 102],
  ["COc1ccc2cc(S(=O)(=O)N3CCCCC3COCC(=O)N3CCN(C4CCN(C)CC4)CC3)ccc2c1 (stereo not drawn)", "B1R receptor of the rat (Rattus norvegicus)", "%", 96],
  ["COc1cc(C)c(S(=O)(=O)N2CCCCC2COCC(=O)N2CCC(N3CCc4cc(F)ccc4C3)CC2)c(C)c1 (stereo not drawn)", "B1R receptor of the rat (Rattus norvegicus)", "%", 98.7],
  ["O=C(COCC1CCCCN1S(=O)(=O)c1c(Cl)cccc1Cl)N1CCN(Cc2ccc(Cl)cc2)CC1 (stereo not drawn)", "B1R receptor of the rat (Rattus norvegicus)", "%", 99],
  ["COc1cc(C)c(S(=O)(=O)N2CCCCC2COCC(=O)N2CCN(CCC3CCN(C)CC3)CC2)c(C)c1 (stereo not drawn)", "B1R receptor of the rat (Rattus norvegicus)", "%", 100],
  ["COc1cc(C)c(S(=O)(=O)N2CCCCC2COCC(=O)N(CCN(C)C)Cc2ccccc2)c(C)c1 (stereo not drawn)", "B1R receptor of the rat (Rattus norvegicus)", "%", 101],
  ["COc1cccc(N2CCN(C(=O)COCC3CCCN3S(=O)(=O)c3c(C)cc(OC)cc3C)CC2)c1 (stereo not drawn)", "B1R receptor of the rat (Rattus norvegicus)", "%", 99.2]
]}

====

test_system: human B1R receptor (Homo sapiens, UniProt P46663)
Construct: host or cells: CHO K1 cells (Chinese hamster ovary), stably transfected
Sequence (P46663 whole entry): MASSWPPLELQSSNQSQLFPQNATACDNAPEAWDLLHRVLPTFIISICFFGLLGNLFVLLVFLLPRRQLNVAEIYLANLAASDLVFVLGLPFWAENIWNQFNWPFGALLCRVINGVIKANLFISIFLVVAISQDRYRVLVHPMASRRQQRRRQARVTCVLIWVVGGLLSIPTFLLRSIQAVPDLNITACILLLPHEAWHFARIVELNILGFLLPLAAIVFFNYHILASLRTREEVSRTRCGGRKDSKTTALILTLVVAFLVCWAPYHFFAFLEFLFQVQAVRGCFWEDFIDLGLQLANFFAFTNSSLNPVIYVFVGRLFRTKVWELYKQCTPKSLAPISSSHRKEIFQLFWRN
assay_protocol: Functional study on the bradykinin receptor 1 (B1R), FLIPR Ca2+ assay, hB1R cells
Format: cell-based
experimental_parameters: CHO-K1, test substance 10 μM, agonist Lys-Des-Arg9-bradykinin 0.5 nM, % inhibition compared with the maximum achievable inhibition, read-out: B1R Antagonism, human [10 μM] % Inhibition
Text: The agonistic or antagonistic action of substances can be quantified on the bradykinin receptor 1 (B1R) of the species human and rat with ectopically expressing cell lines (CHO K1 cells) and with the aid of a Ca^2+-sensitive dye (Fluo-4) using a fluorescent imaging plate reader (FLIPR). […] The agonistic or antagonistic action of substances can be determined on the bradykinin receptor 1 (B1R) of the species human and rat using the following assay. […]
Attribute: inhibition at 10 µM

{"columns": ["molecule", "inhibition at 10 µM, %"],
 "data": [
  ["O=C(COCC1CCCCN1S(=O)(=O)c1ccc(Cl)c(Cl)c1)N1CCN(CCN2CCCCC2)CC1 (centres unmarked)", 70.6],
  ["O=C(COCC1CCCN1S(=O)(=O)c1c(Cl)cccc1Cl)NCc1ccc(CN2CCCC2)cc1 (centres unmarked)", 102],
  ["COc1cc(C)c(S(=O)(=O)N2CCCC2COCC(=O)N2CCN(c3ccncc3)CC2)c(C)c1 (centres unmarked)", 104],
  ["COc1cc(C)c(S(=O)(=O)N2CCCCC2COCC(=O)N2CCC(c3nc4cc(C)ccc4[nH]3)CC2)c(C)c1 (centres unmarked)", 97.2],
  ["COc1cc(C)c(S(=O)(=O)N2CCCCC2COCC(=O)N2CCN(c3ccc4c(N5CCCC5)ncnc4c3)CC2)c(C)c1 (centres unmarked)", 93.8]
]}

====

Measured inhibition at 10 µM, listed per entry.
test_system: B1R receptor of the rat (Rattus norvegicus)
Construct: host or cells: CHO K1 cells (Chinese hamster ovary), stably transfected
Sequence (P97583 1-337): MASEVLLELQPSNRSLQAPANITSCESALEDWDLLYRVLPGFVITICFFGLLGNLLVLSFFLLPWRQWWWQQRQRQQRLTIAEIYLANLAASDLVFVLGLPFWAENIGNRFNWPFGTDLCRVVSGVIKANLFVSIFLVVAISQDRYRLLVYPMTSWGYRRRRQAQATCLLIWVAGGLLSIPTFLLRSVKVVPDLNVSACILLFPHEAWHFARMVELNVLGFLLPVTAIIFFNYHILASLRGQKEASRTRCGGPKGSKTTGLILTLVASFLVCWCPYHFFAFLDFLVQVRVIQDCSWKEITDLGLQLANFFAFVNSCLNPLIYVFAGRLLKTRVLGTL
assay_protocol: Functional study on the bradykinin receptor 1 (B1R), FLIPR Ca2+ assay, rB1R cells
Type: cell-based
experimental_parameters: CHO-K1, test substance 10 μM, agonist Des-Arg9-bradykinin 100 nM, % inhibition compared with the maximum achievable inhibition, read-out: B1R Antagonism, rat [10 μM] % Inhibition
readout_name: inhibition at 10 µM (%)

{"columns": ["compound", "test_system", "readout_name", "readout_number"],
 "data": [
  ["CN1CCC(N2CCN(C(=O)COCC3CCCCN3S(=O)(=O)c3cc(C(F)(F)F)ccc3C(F)(F)F)CC2)CC1 (stereo not drawn)", "B1R receptor of the rat (Rattus norvegicus)", "inhibition at 10 µM", 40.6],
  ["N#CCCN1CCN(C(=O)COCC2CCCCN2S(=O)(=O)c2c(Cl)cccc2Cl)CC1 (stereo not drawn)", "B1R receptor of the rat (Rattus norvegicus)", "inhibition at 10 µM", 98.9],
  ["COc1cc(C)c(S(=O)(=O)N2CCCCC2COCC(=O)N2CCC(c3nc(-c4ccncc4)no3)CC2)c(C)c1 (stereo not drawn)", "B1R receptor of the rat (Rattus norvegicus)", "inhibition at 10 µM", 100]
]}

====

test_system: B1R receptor of the rat (Rattus norvegicus, UniProt P97583)
Construct: host or cells: CHO K1 cells (Chinese hamster ovary), stably transfected
Sequence (P97583 1-337): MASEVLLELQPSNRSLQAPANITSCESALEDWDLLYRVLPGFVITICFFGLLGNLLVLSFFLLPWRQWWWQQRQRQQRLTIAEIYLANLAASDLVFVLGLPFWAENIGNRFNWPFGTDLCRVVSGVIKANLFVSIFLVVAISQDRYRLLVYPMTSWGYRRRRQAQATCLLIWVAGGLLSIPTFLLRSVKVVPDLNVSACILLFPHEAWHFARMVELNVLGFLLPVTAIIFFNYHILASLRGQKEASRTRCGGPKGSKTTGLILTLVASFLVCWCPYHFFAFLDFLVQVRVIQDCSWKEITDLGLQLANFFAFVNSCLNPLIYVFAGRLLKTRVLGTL
assay_protocol: Functional study on the bradykinin receptor 1 (B1R), FLIPR Ca2+ assay, rB1R cells
Format: cell-based
experimental_parameters: CHO-K1, test substance 10 μM, agonist Des-Arg9-bradykinin 100 nM, % inhibition compared with the maximum achievable inhibition, read-out: B1R Antagonism, rat [10 μM] % Inhibition

{"columns": ["compound", "inhibition at 10 µM (%)"],
 "data": [
  ["CN(C)CCCN1CCN(C(=O)COCC2CCCCN2S(=O)(=O)c2cccc(C(F)(F)F)c2)CC1 (stereo not drawn)", 10.2],
  ["CN1CCN(C2CCN(C(=O)COCC3CCCCN3S(=O)(=O)c3csc4ccccc34)CC2)CC1 (stereo not drawn)", 99],
  ["COc1ccc(S(=O)(=O)N2CCCCC2CCOCC(=O)N2CCC(CCN3CCCCC3)CC2)cc1 (stereo not drawn)", 99.5],
  ["COc1cc(C)c(S(=O)(=O)N2CCCC2COCC(=O)Nc2ccc(CCc3nc4ccccc4n3C)cc2)c(C)c1 (stereo not drawn)", 98.1],
  ["O=C(COCC1CCCN1S(=O)(=O)c1c(Cl)cc(Cl)cc1Cl)NCC1CCCN(Cc2ccccc2)C1 (stereo not drawn)", 101],
  ["COc1cc(C)c(S(=O)(=O)N2CCCC2COCC(=O)N2CCN(CC3CCCCC3)CC2)c(C)c1 (stereo not drawn)", 104]
]}
